System: MDCK-OAT4 cells
Test: CellTiter-Glo luminescent cell viability assay in MDCK-OAT4 cells
Conditions: concentration that inhibits cell viability by 10%; MDCK-OAT4 cells, 20 min exposure
Endpoint name: Cytotoxicity IC10

Answered cases to consult:
Molecule	Endpoint name	Result
CC(C)(c1cc(Br)c(O)c(Br)c1)c1cc(Br)c(O)c(Br)c1 [Tetrabromobisphenol A, Tetrabromobisphenol-A]	Cytotoxicity IC10	> 10 µM
O=c1c(O)c(-c2ccc(O)c(O)c2)oc2cc(O)cc(O)c12 [Quercetin]	Cytotoxicity IC10	> 100 µM
O=C(O)C(F)(F)C(F)(F)C(F)(F)C(F)(F)C(F)(F)C(F)(F)C(F)(F)F [Perfluorooctanoic acid]	Cytotoxicity IC10	> 100 µM
CO[C@H]1/C=C/O[C@@]2(C)Oc3c(C)c(O)c4c(O)c(c(/C=N/N5CCN(C)CC5)c(O)c4c3C2=O)NC(=O)/C(C)=C\C=C\[C@H](C)[C@H](O)[C@@H](C)[C@@H](O)[C@@H](C)[C@H](OC(C)=O)[C@@H]1C [Rifampicin, reference compound]	Cytotoxicity IC10	> 100 µM
CC1(C)C(/C=C/C=C/C=C/C=C2\N(CCCCS(=O)(=O)O)c3ccc4ccccc4c3C2(C)C)=[N+](CCCCS(=O)(=O)[O-])c2ccc3ccccc3c21 [Indocyanine green, reference compound]	Cytotoxicity IC10	> 10 µM

Shift focus to the following entry.
Problem: Tell me the measured Cytotoxicity IC10 of Oc1c(Cl)c(Cl)c(Cl)c(Cl)c1Cl [Pentachlorophenol] , please.
Solution: 1.14 µM
